For each of the sequences below, state its protein stability index.
Assay Method Text: protein stability index of a GFP-peptide fusion (GPS, HEK-293T) (PSI 1-6); higher = more stable;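 note: 24-mer peptide tiles fused after GFP, lentivirally expressed, FACS-sorted into six equal bins by GFP/DsRed ratio, decoded by Illumina sequencing, PSI is the read-weighted mean bin number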
Measurement Context: treatment: DMSO; c terminus: a fixed tail appended
Answers are plain numbers.

1. MYEMLIGYPPFCSETPQETYRKVM [STK38L]; 2.2
2. IAHDGQRIYVLGGGTSWTAYSLNK [KLHDC10]; 2.13
3. GAASLPSELIVHIFSFLPAPDRLR [FBXO33]; 2.6

Go through the list and state protein stability index for each entry.
1. EDGMQCLQLKETLATQEPTDNQVR [DLC1]
2. STSGQPYPTSDQEGDPGSKQPRKK [LCOR]
3. GASLRLAVEDGLQQFKQYSRHVTT [M1AP]
4. NISDADVHNAMDNYECNLYTFLYL [FEM1B]
5. KARDWFQGHLRRLRSRYSVASFKF [MYORG]
6. SAARVVLTSLLACLPAGPRVYFLK [DUSP5]

-- reply
1. 5.35
2. 5.5
3. 3.06
4. 2.25
5. 2.21
6. 2.43

---

For each of the sequences below, state its protein stability index.
Assay Method Text: protein stability index of a GFP-peptide fusion (GPS, HEK-293T) (PSI 1-6); higher = more stable
Measurement Context: treatment: MLN4924 1 uM, 8 h; c terminus: a fixed tail appended
Answers are plain numbers.

// solved cases for protein stability index follow
1. CVLVDTGRPIPGTSTRYEQPKCDN [SMOC2]; 3.77
2. SPFSVHPKTGRISVPIDLQKVDQF [PRIM1]; 3.42
3. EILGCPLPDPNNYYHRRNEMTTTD [CPXM2]; 3.54
4. KAALAALCPGDLIQAINGESTELM [PDLIM4]; 3.77
5. APNRFFQKLNVFKNFIGLLQNQNF [NLN]; 2.24
6. LEVERQENEQRRLFIQKEEQLQQI [MNAT1]; 4.64

Go through the list and state protein stability index for each entry.
1. SVYAWGGGLGTPLRLPMLNTEVVQ [NEK8]
2. LEKPPAPNQAMVVAAAGDACPPQH [TBC1D10A]
3. SGVCLFAVFIALLPILGHRDYKIQ [PTGFR]
4. DFYEAMDDYTSAIEVQPNFEVPYY [TTC32]
5. YERLARILLQEIPIRSISLRSCYF [FBXO39]
6. VVLTFITPMLNPLIYTLKNAEMKS [OR4A15]
7. SHSASATGNVCIEEIDVDGKFIRL [LMNB1]

-- reply
2.69
5.2
3.37
2.84
2.56
2.99
3.48

---

Assay Method Text: protein stability index of a GFP-peptide fusion (GPS, HEK-293T) (PSI 1-6); higher = more stable
Measurement Context: treatment: DMSO; c terminus: a fixed tail appended
Result Type: protein stability index
Numbers only.

// solved cases for protein stability index follow
1) PEEKIWEELSVLEVFEGREDSILG [MAGEA3]; 4.6
2) LGLDNRLFGHPGLDMELGPSQGQE [ADAMTSL2]; 4.84
3) GGKSGGIVISPFRLEELTNRLASL [CCDC6]; 2.58

Go through the list and state protein stability index for each entry.
1. YNNRGQIKYFRVDFYEAMDDYTSA [TTC32]
2. TVNTHYFSIDEELVYENFYADFGP [CDC14A]
3. SLKLASSELERLIVPNSNGVITTT [JUNB]
4. ATRGVPAKRLLDADDAAAVAAKCP [TRIB1]

-- reply
2.15
2.37
3.24
4.39
